Result Type: melting point

Task: # lookup: melting point of COc1c(N2CCCC(N(C)C(=O)c3ccco3)C2)c(F)cc2c(=O)c(C(=O)O)cn(C3CC3)c12 (stereo not shown)
Result: 167.5 to 168.7 °C

Task: Can you look up the measured melting point of CCCCCCCC(=O)N(C)C1CCCN(c2c(F)cc3c(=O)c(C(=O)O)cn(C4CC4)c3c2OC)C1 (stereo not shown) for me?
Result: 68.2 to 70 °C

Task: Need melting point, item CCCCCCCCCC(=O)N(C)C1CCCN(c2c(F)cc3c(=O)c(C(=O)O)cn(C4CC4)c3c2OC)C1 (stereo not shown)
Result: 65.2 to 68.1 °C

Task: GET /values?readout=melting point&item= COc1c(N2CCCC(N(C)C(=O)CC#N)C2)c(F)cc2c(=O)c(C(=O)O)cn(C3CC3)c12 (stereo not shown)
Result: 184.8 to 186.2 °C

###

The reader will find reported hemolysis at 24 h values listed item by item below.
Measurement Description: Hemolytic activity
Format: cell-based, rabbit
Assay Setup: male, New Zealand white, rabbit, red cell suspension from rabbit blood; even at high concentrations (> 10^5 × MIC), 37°C, 24 h; read-out: hemolysis rate

- Compound: "CNC1CCCN(c2c(F)cc3c(=O)c(C(=O)O)cn(C4CC4)c3c2OC)C1 (centres unmarked)"
  hemolysis at 24 h: "≤ 5%"

Now for another entry.
Task: Field request: hemolysis at 24 h | item: COc1c(N2CCCC(N(C)C(C)=O)C2)c(F)cc2c(=O)c(C(=O)O)cn(C3CC3)c12 (centres unmarked)
Result: ≤ 5%

###

Measurement Description: Cell viability assay (MTS), BEL-7402
Format: cell-based, human
Assay Setup: human, BEL-7402 tumor cells; BEL-7402, 100 μmol/L, 48 h
Result Type: viability at 48 h, 100 μmol/L

Task: I'd like to know its viability at 48 h, 100 μmol/L. The molecule in question is COc1c(N2CCCC(N(C)C(C)=O)C2)c(F)cc2c(=O)c(C(=O)O)cn(C3CC3)c12 (stereo not shown)
Result: ≥ 80%

###

Measurement Description: Cell viability assay (MTS), MCF-7
Assay type: cell-based, human
Assay Setup: human, MCF-7 tumor cells; MCF-7, 100 μmol/L, 48 h
Result Type: viability at 48 h, 100 μmol/L

Task: Endpoint output: viability at 48 h, 100 μmol/L of COc1c(N2CCCC(N(C)C(C)=O)C2)c(F)cc2c(=O)c(C(=O)O)cn(C3CC3)c12 (stereo not shown) . Value?
Result: ≥ 80%

###

Measurement Description: Cell viability assay (MTS), H520
Type: cell-based, human
Assay Setup: human, H520 tumor cells; H520, 100 μmol/L, 48 h
Result Type: viability at 48 h, 100 μmol/L

Task: viability at 48 h, 100 μmol/L lookup needed for COc1c(N2CCCC(N(C)C(C)=O)C2)c(F)cc2c(=O)c(C(=O)O)cn(C3CC3)c12 (stereo not shown) , thanks.
Result: ≥ 80%

###

Test system: E. coli
Measurement Description: MIC and MBC determinations in vitro, E. coli
Assay type: cell-based
Assay Setup: Escherichia coli; E. coli clinical isolate, solid medium 24 h
Result Type: MBC (µg/mL)
Reply numerically in µg/mL, unit not repeated.

- Molecule: "COc1c(N2C[C@@H]3CCCN[C@@H]3C2)c(F)cc2c(=O)c(C(=O)O)cn(C3CC3)c12 [Compound 1f, moxifloxacin, reference compound]"
  Units Text: "µg/mL"
  MBC: 0.039

Task: Query: MBC; subject: COc1c(N2CCCC(N(C)C(=O)CC#N)C2)c(F)cc2c(=O)c(C(=O)O)cn(C3CC3)c12 (stereo not drawn)
Result: 1.56

Task: MBC lookup needed for COc1c(N2CCCC(N(C)C(=O)c3cccnc3)C2)c(F)cc2c(=O)c(C(=O)O)cn(C3CC3)c12 (stereo not drawn) , thanks.
Result: 20

Task: Quick check: MBC of COc1c(N2CCCC(N(C)C(=O)c3ccccc3)C2)c(F)cc2c(=O)c(C(=O)O)cn(C3CC3)c12 (stereo not drawn) ?
Result: 20

Task: Returns the measured MBC for the input molecule. Input: COc1c(N2CCCC(N(C)C(=O)Cn3cncn3)C2)c(F)cc2c(=O)c(C(=O)O)cn(C3CC3)c12 (stereo not drawn)
Result: 0.313

Task: Sample COc1c(N2CCCC(N(C)C(=O)C(C)N)C2)c(F)cc2c(=O)c(C(=O)O)cn(C3CC3)c12 (stereo not drawn) — what was its MBC?
Result: 25

###

The entries below are paired with their reported melting point.

- Molecule: "CC(=O)NC1(c2c(F)cc3c(=O)c(C(=O)O)cn4c3c2OCC4C)CC1 (centres unmarked)"
  melting point: "273.1 to 274.1 °C"
- Molecule: "COc1c(N2CCCC(N(C)C(=O)C3CCCO3)C2)c(F)cc2c(=O)c(C(=O)O)cn(C3CC3)c12 (centres unmarked)"
  melting point: "140.2 to 141.2 °C"

Task: Would you mind telling me what melting point value was observed for COc1c(N2CCCC(N(C)C(=O)C3CC3)C2)c(F)cc2c(=O)c(C(=O)O)cn(C3CC3)c12 (centres unmarked) ?
Result: 104.6 to 106.5 °C

Task: Entry COc1c(N2CCCC(N(C)C(C)=O)C2)c(F)cc2c(=O)c(C(=O)O)cn(C3CC3)c12 (centres unmarked) has what melting point?
Result: 201.6 to 202.3 °C

Task: Return reported melting point; argument: COc1c(N2CCCC(N(C)C(=O)C3CCCC3)C2)c(F)cc2c(=O)c(C(=O)O)cn(C3CC3)c12 (centres unmarked)
Result: 105.1 to 106.4 °C

###

Tested on: P. aeruginosa
Measurement Description: MIC and MBC determinations in vitro, P. aeruginosa
Type: cell-based
Assay Setup: Pseudomonas aeruginosa; P. aeruginosa clinical isolate, 24 h culture; read-out: MIC
Result Type: MIC (µg/mL)

- Compound: "COc1c(N2CC3CCCN(C(=O)Cn4cncn4)C3C2)c(F)cc2c(=O)c(C(=O)O)cn(C3CC3)c12 (stereo not drawn) [Compound f-1]"
  MIC [µg/mL]: 1.25
- Compound: "C[C@H]1COc2c(C3(N)CC3)c(F)cc3c(=O)c(C(=O)O)cn1c23 [Compound 1g, pazufloxacin, reference compound]"
  MIC [µg/mL]: 0.313
- Compound: "COc1c(N2CC3CCCN(C(C)=O)C3C2)c(F)cc2c(=O)c(C(=O)O)cn(C3CC3)c12 (stereo not drawn) [Compound 2-f]"
  MIC [µg/mL]: 0.313
- Compound: "COc1c(N2CCCC(N(C)C(=O)CN)C2)c(F)cc2c(=O)c(C(=O)O)cn(C3CC3)c12 (stereo not drawn) [Compound 20-e]"
  MIC [µg/mL]: 0.78
- Compound: "CCC(=O)N(C)C1CCCN(c2c(F)cc3c(=O)c(C(=O)O)cn(C4CC4)c3c2OC)C1 (stereo not drawn) [Compound 3-e]"
  MIC [µg/mL]: 0.078

P: CCCCC(=O)N(C)C1CCCN(c2c(F)cc3c(=O)c(C(=O)O)cn(C4CC4)c3c2OC)C1 (stereo not drawn) [Compound 5-e]
Q: COc1c(N2CCCC(N(C)C(=O)C3CCCC3)C2)c(F)cc2c(=O)c(C(=O)O)cn(C3CC3)c12 (stereo not drawn) [Compound 16-e]
R: CC(=O)NC1(c2c(F)cc3c(=O)c(C(=O)O)cn4c3c2OCC4C)CC1 (stereo not drawn) [Compound 2-g]
Task: Order the records by MIC, with each subsequent value no larger than the one before. Lab note: record answer as labels in requested order.
Result: R, Q, P
(R: 25 µg/mL, Q: 0.313 µg/mL, P: 0.078 µg/mL)

###

System: P. aeruginosa
Measurement Description: MIC and MBC determinations in vitro, P. aeruginosa
Format: cell-based
Assay Setup: Pseudomonas aeruginosa; P. aeruginosa clinical isolate, 24 h culture; read-out: MIC
Result Type: MIC (µg/mL)

- Compound: "CCCCCCC(=O)N(C)C1CCCN(c2c(F)cc3c(=O)c(C(=O)O)cn(C4CC4)c3c2OC)C1 (stereo not shown)"
  MIC [µg/mL]: 0.625
- Compound: "COc1c(N2C[C@@H]3CCCN[C@@H]3C2)c(F)cc2c(=O)c(C(=O)O)cn(C3CC3)c12 [Compound 1f, moxifloxacin, reference compound]"
  MIC [µg/mL]: 0.039
- Compound: "COc1c(N2CCCC(N(C)C)C2)c(F)cc2c(=O)c(C(=O)O)cn(C3CC3)c12 (stereo not shown)"
  MIC [µg/mL]: 0.313
- Compound: "CCCCCC(=O)N(C)C1CCCN(c2c(F)cc3c(=O)c(C(=O)O)cn(C4CC4)c3c2OC)C1 (stereo not shown)"
  MIC [µg/mL]: 0.313
- Compound: "CCCC(=O)N(C)C1CCCN(c2c(F)cc3c(=O)c(C(=O)O)cn(C4CC4)c3c2OC)C1 (stereo not shown)"
  MIC [µg/mL]: 0.078

P: COc1c(N2CCCC(N(C)C(=O)c3ccco3)C2)c(F)cc2c(=O)c(C(=O)O)cn(C3CC3)c12 (stereo not shown)
Q: COc1c(N2CCCC(N(C)C(=O)Cn3cncn3)C2)c(F)cc2c(=O)c(C(=O)O)cn(C3CC3)c12 (stereo not shown)
Task: Of the two listed items, which has the higher MIC? First: P Second: Q # answer = label of selected item
Result: Q

Measured values drawn from paper PMC9437215 for this set.
